Some compounds, each annotated with its measured composite z-score.
target: Alpha-bungarotoxin (Bungarus multicinctus); assay: compounds binding labelled alpha-BTX control protein – biochemical, small-molecule microarray, Alexa647 label, 635/667 nm fluorescence, artefact control for SMM control protein annotation, profiling panel (AID 1117); settings: alpha-BTX-A647 binding fluorescence, higher = more signal
No unit in the answer, please; the number alone is enough.

- CC1CC/C=C\[C@H]2OC34C=CCN(Cc5ccccc5)C(=O)[C@H]3N(CCO)C(=O)[C@@H]4C2C(=O)O1 (stereo not given in full): -0.4
- CC(C)C(CO)N1C(=O)[C@@H]2[C@H]3C(=O)OCC=C[C@H]3OC23C=CCN(CCN2CCOCC2)C(=O)[C@@H]13 (stereo not given in full): 0.451

Lookup: Give reported composite z-score for CN1C(=O)C2C=CC(C(O)c3cccc4ccccc34)N(NC(=O)OC(C)(C)C)C2C1=O (stereo not given) (Alpha-bungarotoxin (Bungarus multicinctus))
Found: 1.19

Lookup: Give Alpha-bungarotoxin (Bungarus multicinctus) composite z-score for the following compound: O=C1C2C=CC(C(O)c3ccccn3)N(Nc3ccccc3)C2C(=O)N1c1ccccc1 (stereo not given)
Found: 0.31

====

experiment: compound effects on multiple myeloma cell viability – MM1S, calcein-AM fluorescence, 48 h, basal, profiling panel (AID 1165); conditions: higher = more signal; further: test concentration not given here
OBSERVATION_TYPE: z-score
The response must contain the number and no unit.

* COc1ccccc1CN1C(=O)c2ccccc2[C@@H](C(=O)NCC(C)C)[C@@H]1c1ccc(CO)cc1 | 0.869
* COC(=O)C(CC#Cc1ccc2c(c1)[C@]1(C(=O)N2)[C@H](c2ccc(O)cc2)N2[C@H](c3ccccc3)[C@H](c3ccccc3)OC(=O)[C@H]2[C@@H]1C(N)=O)C(=O)OC | 0.244
* COC(=O)[C@@]1(Cc2ccccc2)[C@H]2c3cc(C(=O)N(C)C)n(Cc4ccccn4)c3C[C@H]2CN1C(=O)c1ccccc1 | -1

Lookup: Tell me its z-score given CN(C)CCCNC(=O)[C@@]1(Cc2ccccc2I)c2ccccc2C(=O)N(Cc2ccccc2Cl)[C@H]1c1ccc(CO)cc1 as the entry.
Found: -3.8

Lookup: Assign z-score to the following record: COCC(=C=CC[C@@H](O)c1ccccc1OCCO)C[C@@H](O)c1ccccn1
Found: -0.591

Lookup: Please look at this molecule and report its z-score: O=C(NCc1ccccc1)[C@]1(Cc2ccccc2)N=C(c2ccc(OCCCO)cc2)O[C@@H]1c1ccccc1
Found: -2.57

Lookup: Supply z-score value. Item: CCCNC(=O)[C@@H]1c2ccccc2C(=O)N(CC23CC4CC(CC(C4)C2)C3)[C@H]1c1ccc(CO)cc1
Found: -0.671

====

assay: calcein-AM signal in unstimulated myeloma cells – cell-based, calcein-AM fluorescence, 48 h, PK04 Diversity Set, profiling panel (AID 1166); details: RPMI8226 myeloma viability, higher = more signal;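 further: cells grown under basal conditions without added stimulus; test concentration not given here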
OBSERVATION_TYPE: z-score
Give the value as a plain number.

Consider the following illustrative entries.
- C[C@@H]1ON(c2ccccc2)[C@H](c2ccccc2)[C@H]1C(=O)N1C(=O)OC[C@H]1Cc1ccccc1: -0.0681
- OCc1ccc(-c2cc[n+](Cc3cccc(OC(F)(F)F)c3)cc2)cc1: -0.483
- Cc1ccc(S[C@]2(C(=O)O)CC(=O)N(C3CCCCC3)[C@@H]2c2ccc(CO)cc2)cc1: 0.761
- CC(C)=CCCC(C)=CC(O)C1C=CC2C(=O)N(c3ccccc3)C(=O)C2N1Nc1ccc([N+](=O)[O-])cc1 (configuration not stated): -0.186
- COC(=O)C(CC#Cc1ccc2c(c1)[C@]1(C(=O)N2)[C@H](C(=O)N2CCc3cc(OC)c(OC)cc3C2)[C@H]2C(=O)O[C@H](c3ccccc3)[C@H](c3ccccc3)N2[C@@H]1c1ccc(OCCO)cc1)C(=O)OC: 0.678
- [N-]=[N+]=NCc1ccccc1C[C@]1(C(=O)NCCN2CCOCC2)COC(c2ccc(OCCCO)cc2)=N1: -0.699

Kindly review the next molecule as well.
Lookup: Determine its reported z-score: Cc1ccc(N2C(=O)c3ccccc3[C@](C)(C(=O)NC(C)C)[C@@H]2c2ccc(CO)cc2)nc1
Found: -1.35

====

biological target: Neurogenic locus notch homolog protein 2 (Homo sapiens) (UniProt Q04721); experiment: small molecules binding Notch2 protein – biochemical, small-molecule microarray, 635 nm fluorescence, stem cell growth factors, primary screen (AID 1073); details: higher = more signal
Sequence (Q04721 whole entry, looked up): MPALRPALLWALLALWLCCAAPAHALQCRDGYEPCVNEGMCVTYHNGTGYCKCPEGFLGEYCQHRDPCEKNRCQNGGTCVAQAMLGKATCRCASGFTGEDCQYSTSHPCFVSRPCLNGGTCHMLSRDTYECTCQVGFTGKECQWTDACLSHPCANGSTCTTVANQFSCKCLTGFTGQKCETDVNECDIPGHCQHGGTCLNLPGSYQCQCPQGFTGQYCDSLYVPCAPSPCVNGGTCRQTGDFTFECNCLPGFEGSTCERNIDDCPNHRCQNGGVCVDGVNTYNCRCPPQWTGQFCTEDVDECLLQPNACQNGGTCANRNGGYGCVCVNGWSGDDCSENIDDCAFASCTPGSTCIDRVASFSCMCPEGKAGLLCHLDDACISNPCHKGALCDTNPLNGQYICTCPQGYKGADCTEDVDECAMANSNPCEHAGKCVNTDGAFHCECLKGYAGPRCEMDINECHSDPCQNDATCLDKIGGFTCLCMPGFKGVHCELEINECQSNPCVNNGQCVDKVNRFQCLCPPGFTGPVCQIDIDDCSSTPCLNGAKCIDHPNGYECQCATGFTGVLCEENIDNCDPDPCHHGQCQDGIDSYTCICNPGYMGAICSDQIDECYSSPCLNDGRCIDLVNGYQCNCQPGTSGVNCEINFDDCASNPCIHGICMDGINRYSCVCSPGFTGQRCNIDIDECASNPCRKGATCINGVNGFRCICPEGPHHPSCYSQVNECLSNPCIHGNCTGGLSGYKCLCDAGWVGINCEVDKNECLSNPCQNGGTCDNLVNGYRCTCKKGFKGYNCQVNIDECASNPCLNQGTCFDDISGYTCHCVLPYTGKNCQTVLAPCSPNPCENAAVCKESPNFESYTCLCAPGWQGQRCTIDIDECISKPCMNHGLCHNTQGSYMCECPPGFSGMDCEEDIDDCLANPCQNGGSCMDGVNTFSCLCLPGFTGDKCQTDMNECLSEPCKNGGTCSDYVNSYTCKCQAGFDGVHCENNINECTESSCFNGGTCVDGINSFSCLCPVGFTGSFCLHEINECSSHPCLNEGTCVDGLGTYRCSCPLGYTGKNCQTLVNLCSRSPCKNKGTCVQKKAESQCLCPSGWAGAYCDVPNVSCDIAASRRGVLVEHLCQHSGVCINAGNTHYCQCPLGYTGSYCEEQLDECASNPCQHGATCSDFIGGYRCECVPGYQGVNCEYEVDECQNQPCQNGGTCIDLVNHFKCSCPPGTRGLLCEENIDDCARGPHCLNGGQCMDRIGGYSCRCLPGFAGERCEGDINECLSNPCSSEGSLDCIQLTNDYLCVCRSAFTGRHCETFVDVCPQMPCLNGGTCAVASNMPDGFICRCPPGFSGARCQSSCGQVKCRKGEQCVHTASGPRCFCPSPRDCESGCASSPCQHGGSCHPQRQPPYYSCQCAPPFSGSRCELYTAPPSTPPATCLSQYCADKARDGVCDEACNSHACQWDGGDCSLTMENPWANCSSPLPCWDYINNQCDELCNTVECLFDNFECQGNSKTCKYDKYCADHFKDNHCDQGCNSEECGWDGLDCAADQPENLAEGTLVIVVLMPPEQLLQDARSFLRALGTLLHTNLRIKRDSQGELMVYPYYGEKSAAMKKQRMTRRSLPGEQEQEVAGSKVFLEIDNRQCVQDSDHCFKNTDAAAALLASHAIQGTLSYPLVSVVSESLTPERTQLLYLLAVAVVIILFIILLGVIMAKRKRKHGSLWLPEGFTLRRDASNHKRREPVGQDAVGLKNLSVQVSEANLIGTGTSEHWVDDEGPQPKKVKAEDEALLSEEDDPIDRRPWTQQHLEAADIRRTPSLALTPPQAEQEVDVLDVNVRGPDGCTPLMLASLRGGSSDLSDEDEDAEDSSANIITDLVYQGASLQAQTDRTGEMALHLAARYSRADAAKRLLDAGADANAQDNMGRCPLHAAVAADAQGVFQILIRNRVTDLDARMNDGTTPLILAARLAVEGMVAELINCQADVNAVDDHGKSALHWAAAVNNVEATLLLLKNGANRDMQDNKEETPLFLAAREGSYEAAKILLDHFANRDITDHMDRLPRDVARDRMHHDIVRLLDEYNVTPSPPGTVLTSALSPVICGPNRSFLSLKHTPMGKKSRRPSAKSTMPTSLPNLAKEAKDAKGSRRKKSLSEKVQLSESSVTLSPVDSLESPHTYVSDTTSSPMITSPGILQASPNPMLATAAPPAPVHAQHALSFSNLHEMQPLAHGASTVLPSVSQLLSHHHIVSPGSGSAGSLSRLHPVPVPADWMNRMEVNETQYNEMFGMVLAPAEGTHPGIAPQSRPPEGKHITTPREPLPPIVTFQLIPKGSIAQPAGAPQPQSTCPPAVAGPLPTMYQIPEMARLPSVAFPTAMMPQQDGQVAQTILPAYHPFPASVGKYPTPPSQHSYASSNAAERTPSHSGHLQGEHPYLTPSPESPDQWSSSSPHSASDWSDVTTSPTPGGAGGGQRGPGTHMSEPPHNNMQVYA
Collected composite z-score values appear next to each entry.
Note: the reply should be a number with no unit written.

Known composite z-score results, listed for orientation:
• CN(C)CCCCNC(=O)[C@H]1C[C@H]2C(=O)N[C@@H](CCCC[N+](C)(C)C)C(=O)N2[C@H]1c1cccc(OCCO)c1 = -0.606
• COC(=O)[C@@]1(Cc2ccc(OC)cc2)[C@H]2c3cc(C(=O)N(C)C)n(Cc4cc(F)c(F)c(F)c4)c3C[C@H]2CN1C(=O)c1ccccc1 = 1.74
• C[C@]12C(=O)N(CCCO)[C@@H]3C(=O)N(c4ccc(Cl)cc4)CC=CC31O[C@@H]1/C=C\CCCOC(=O)C12 (some centres undefined) = -1.37

For the next question, use this compound.
Lookup: Please give the documented composite z-score of COC(=O)[C@]1(Cc2ccccc2N=[N+]=[N-])N=C(c2ccc(OCCCO)cc2)O[C@@H]1c1ccccc1
Found: -0.0515

====

assay: budding yeast growth modifiers under rapamycin – strain BY4716, OD600, 96 h, primary screen (AID 1091); further: test concentration not given here; details: S. cerevisiae BY4716 + rapamycin, called active from +8 up or from −8 down
Active and inactive are the calls of the source.
Respond with a class label; see active, inactive

• COCC1=C([C@H](O)CCc2ccccc2)[C@H](CO)[C@@H]2C(=O)N(C)C(=O)[C@@H]2C1 = inactive
• COC(=O)C(CC#Cc1ccc2c(c1)[C@]1(C(=O)N2)[C@H](C(=O)N2CCc3cc(OC)c(OC)cc3C2)[C@H]2C(=O)O[C@H](c3ccccc3)[C@H](c3ccccc3)N2[C@@H]1c1ccc(OCCO)cc1)C(=O)OC = inactive
• CC(C)(C)OC(=O)CC[C@]1(C(=O)O)COC(c2ccc(OCCCO)cc2)=N1 = inactive
• COc1cccc(C[C@H]2C[C@@H](CO[Si](C(C)C)(C(C)C)C(C)C)N3C(=O)[C@]4(C(C)=O)O[C@]23[C@H]2C(=O)N(C)C(=O)[C@H]24)c1 = inactive
• COC(=O)[C@@]1(Cc2ccc(OC)cc2)[C@H]2c3cc(C(=O)N(C)C)n(Cc4cc(F)c(F)c(F)c4)c3C[C@H]2CN1C(=O)c1ccccc1 = inactive
• CCCC=C(CCC)[C@@H](NC(=O)Cc1ccccc1)c1ccc(C(=O)OC)cc1 = inactive

Lookup: // param item: COc1ccc([Si](C)(C)[C@H]2[C@H](CC(=O)N3CCC[C@H]3CO)O[C@@]3(C(=O)N(Cc4ccc(N5C(=O)c6cccc7cccc5c67)cc4)c4ccccc43)[C@@H]2C)cc1 ; yields the recorded call
Found: inactive

Lookup: Status in this test for COC(=O)C(CC#Cc1ccc2c(c1)[C@]1(C(=O)N2)[C@H](c2ccc(O)cc2)N2[C@H](c3ccccc3)[C@H](c3ccccc3)OC(=O)[C@H]2[C@@H]1C(=O)O)C(=O)OC ?
Found: inactive

Lookup: Recorded test outcome, item CN1C(=O)C2C=CC(C(O)c3ccc(F)cc3)N(N3CCCCC3)C2C1=O (stereo not drawn)
Found: inactive

Lookup: What outcome does the record of this test show for C=CCC(OC(C)=O)[C@@H]1[C@@H](N(Cc2cc3ccccc3o2)C(=O)Cc2ccc(OC)cc2)c2cc(OCCCO)ccc2N1C(=O)c1ccc(-c2ccccc2)cc1 (stereo partly drawn) ?
Found: inactive

Lookup: What was the test verdict on C=CC[C@@]1(C(=O)NCCN2CCOCC2)N=C(c2ccc(OCCCO)cc2)O[C@@H]1c1ccccc1 ?
Found: inactive

Lookup: Give the logged outcome of this assay for the following compound: [N-]=[N+]=Nc1ccccc1[C@@H]1OC(c2ccc(OCCCO)cc2)=N[C@]1(CCS(=O)(=O)c1ccccc1)C(=O)NCc1ccccc1
Found: inactive

Lookup: Look up the recorded call for COCCCNC(=O)[C@@]1(Cc2ccccc2I)c2ccccc2C(=O)N(Cc2ccccc2Cl)[C@H]1c1ccc(CO)cc1 in this test.
Found: inactive

Lookup: What did the test return for CC1CC/C=C\[C@H]2OC34C=CCN(Cc5ccccc5)C(=O)[C@H]3N(CCO)C(=O)[C@@H]4C2C(=O)O1 (stereo partly drawn) ?
Found: inactive

====

assay: growth of efflux-deficient E. coli DRC39 – strain DRC39, OD650, 48 h, E. coli filamentation inducers, primary screen (AID 1179);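 further: screen aims at cell division blockers that make cells filament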; conditions: E. coli DRC39 delta-acrAB growth, higher = more signal, called active from +8 up or from −8 down
Recorded z-score values for a group of compounds are listed next.
Hey, just send me the number, nothing else.

Examples from the recorded data:
- CC(C)c1ccc(NN2C(C(O)c3cccs3)C=CC3C(=O)N(c4ccccc4)C(=O)C32)cc1 (stereo not drawn): -0.73
- CN(C)C(=O)[C@@]1(CCC(=O)OC(C)(C)C)N=C(c2ccc(OCCCO)cc2)O[C@H]1c1ccccc1N=[N+]=[N-]: -0.264
- O=C(Nc1cc(Br)ccc1C(=O)NCc1cccc(O)c1)c1ccccc1: 1.06
- CN(C)CCCCCCNC(=O)[C@@H]1C[C@@H]2C(=O)NCC(=O)N2[C@@H]1c1ccc(O)cc1: -0.823
- CCCCC(CC)C(O)C1C=CC2C(=O)NC(=O)C2N1Nc1ccccn1 (stereo not drawn): -0.112

Lookup: Fill in reported z-score for this entry: CC(C)C(CO)N1C(=O)[C@@H]2[C@H]3C(=O)OCC=C[C@H]3OC23C=CCN(CCN2CCOCC2)C(=O)[C@@H]13 (stereo partly drawn)
Found: -1.06

Lookup: Could you please provide reported z-score for O=C1C2C=CC(C(O)c3ccccn3)N(Nc3ccccc3)C2C(=O)N1c1ccccc1 (stereo not drawn) ? Thanks!
Found: -0.225

Lookup: Input COc1ccc(C#Cc2ccc3c(c2)[C@]2(C(=O)N3)[C@H](C(=O)O)[C@H]3C(=O)O[C@H](c4ccccc4)[C@H](c4ccccc4)N3[C@@H]2c2ccc(OCCO)cc2)cc1 , output reported z-score.
Found: 0.377
